Metric: glass transition temperature (°C)

Past entries and their recorded results:
>  <Compound>
*c1ccc(Oc2ccc(Oc3ccc(N4C(=O)c5cccc(Oc6c(C)cc(Cc7cc(C)c(Oc8cccc9c8C(=O)N(*)C9=O)c(C)c7)cc6C)c5C4=O)c(C)c3)cc2)cc1C (repeat unit)

>  <Unit Annotation>
°C

>  <Observed Measurement>
238.00

$$$$
>  <Compound>
*C(=O)c1ccc2nc(-c3ccccc3)c(-c3ccc(Oc4ccc(-c5nc6cc(*)ccc6nc5-c5ccccc5)cc4)cc3)nc2c1 (repeat unit)

>  <Unit Annotation>
°C

>  <Observed Measurement>
271.00

$$$$
>  <Compound>
*c1cc(C(c2ccc(O)c(-n3c(=O)c4cc5c(=O)n(*)c(=O)c5cc4c3=O)c2)(C(F)(F)F)C(F)(F)F)ccc1O (repeat unit)

>  <Unit Annotation>
°C

>  <Observed Measurement>
350.00

$$$$
>  <Compound>
*Oc1ccc(S(=O)(=O)c2ccc(Oc3ccc(NC(=O)c4cc(NC(=O)c5ccc(OC(C)=O)cc5)cc(C(=O)Nc5ccc(*)cc5)c4)cc3)cc2)cc1 (repeat unit)

>  <Unit Annotation>
°C

>  <Observed Measurement>
263.00

$$$$

a: *O[Si](*)(C)CCCCCCOc1ccc(C(=O)Oc2ccc(C(=O)Oc3ccc(C=C(C(=O)OCCCCCCCCC)C(=O)OCCCCCCCCC)cc3)cc2)cc1 (repeat unit)
b: *CC(*)(C)C(=O)OCCC[Si]12O[Si]3(CC(C)C)O[Si]4(CC(C)C)O[Si](CC(C)C)(O1)O[Si]1(CC(C)C)O[Si](CC(C)C)(O2)O[Si](CC(C)C)(O3)O[Si](CC(C)C)(O4)O1 (repeat unit)
// returns a or b , whichever has the lower glass transition temperature Reply briefly: the label of your chosen item.
a

###

Metric: glass transition temperature (°C)

Previously resolved entries follow.
>  <Compound>
*/C(C#N)=C/c1cc(OCCCCCCCCCCCCCCCC)c(/C=C(\C#N)c2cc(OCCCCCCCCCCCCCCCC)c(*)cc2OC)cc1OC (repeat unit)

>  <Metric>
glass transition temperature

>  <Observed Measurement>
190.00

$$$$
>  <Compound>
*c1ccc(Oc2ccc(S(=O)(=O)c3ccc(Oc4ccc(-c5ncc(*)o5)cc4C(F)(F)F)cc3)cc2)c(C(F)(F)F)c1 (repeat unit)

>  <Metric>
glass transition temperature

>  <Observed Measurement>
210.00

$$$$
>  <Compound>
*c1ccc2c(c1)C(=O)N(c1ccc(C(=O)Nc3ccc(C(c4ccc(NC(=O)c5ccc(N6C(=O)c7ccc(C(*)(C(F)(F)F)C(F)(F)F)cc7C6=O)cc5)cc4)(C(F)(F)F)C(F)(F)F)cc3)cc1)C2=O (repeat unit)

>  <Metric>
glass transition temperature

>  <Observed Measurement>
351.00

$$$$
>  <Compound>
*O[Si](C)(Oc1ccc(*)cc1)c1ccccc1 (repeat unit)

>  <Metric>
glass transition temperature

>  <Observed Measurement>
95.00

$$$$
>  <Compound>
*CC(*)OC(=O)c1cccc(Br)c1 (repeat unit)

>  <Metric>
glass transition temperature

>  <Observed Measurement>
57.50

$$$$
>  <Compound>
*c1ccc2oc(-c3ccc(Oc4ccc(-c5nc6cc(C(*)(c7ccccc7)C(F)(F)F)ccc6o5)cc4)cc3)nc2c1 (repeat unit)

>  <Metric>
glass transition temperature

>  <Observed Measurement>
299.00

$$$$

A: *Oc1ccc(-c2ccc(Oc3ccc(Oc4cccc(Oc5ccc(*)cc5)c4C)cc3)c3ccccc23)c2ccccc12 (repeat unit)
B: *CC(*)C(=O)OCCCOc1ccc(C(=O)OCCCC(F)(F)C(F)(F)C(F)(F)C(F)(F)C(F)(F)C(F)(F)C(F)(F)C(F)(F)F)cc1 (repeat unit)
C: *c1ccc2c(c1)C(=O)N(c1ccc(C(c3ccc(N4C(=O)c5ccc(C(*)(C(F)(F)F)C(F)(F)F)cc5C4=O)cc3)(C(F)(F)F)C(F)(F)F)cc1)C2=O (repeat unit)
D: *Oc1ccc(C(=O)OCCCCCOC(=O)c2ccc(*)cc2)cc1 (repeat unit)
E: *CC(*)C(=O)OCCCCCCCCCCOC(=O)c1ccc(OC(=O)c2ccc(C#N)cc2)cc1 (repeat unit)
Arrange items by their glass transition temperature values in increasing order. When ranking, write the labels in the order the request describes.
E, D, B, A, C
(E: 15.00 °C, D: 26.00 °C, B: 48.00 °C, A: 156.00 °C, C: 315.10 °C)

I: *=Nc1ccc(/N=C(/C=C/C(=*)c2ccccc2)c2ccccc2)cc1 (repeat unit)
II: *CCCCCCOC(=O)c1cc(OCCCCCCOc2ccc(/N=N/c3ccc(C#N)cc3)cc2)cc(C(=O)OCCCCCCN2C(=O)c3ccc(-c4ccc(-c5ccc6c(c5)C(=O)N(*)C6=O)cc4)cc3C2=O)c1 (repeat unit)
III: *Oc1ccc(S(=O)(=O)c2ccc(Oc3ccc(NC(=O)c4cc(NC(=O)c5ccncc5)cc(C(=O)Nc5ccc(*)cc5)c4)cc3)cc2)cc1 (repeat unit)
IV: *CC(COC(F)(C(F)(F)F)C(F)(F)F)O* (repeat unit)
List these items ordered by glass transition temperature, big to small. Answer by listing the labels in the requested order.
III, I, II, IV
(III: 283.00 °C, I: 157.00 °C, II: 67.00 °C, IV: -43.00 °C)

###

Metric: glass transition temperature (°C)

# annotated cases, reported glass transition temperature shown
>  <Molecule>
*Oc1ccc(C2(c3ccc(Oc4ccc(C(=O)Oc5c(C)cc(C(C)(C)c6cc(C)c(OC(=O)c7ccc(*)cc7)c(C)c6)cc5C)cc4)cc3)CCC(C(C)(C)C)CC2)cc1 (repeat unit)

>  <Unit Annotation>
°C

>  <glass transition temperature>
176.00

$$$$
>  <Molecule>
*Oc1ccc(Oc2ccc(/C(=N\c3ccccc3)c3ccc(Oc4ccc(Oc5cccc(*)n5)cc4)cc3)cc2)cc1 (repeat unit)

>  <Unit Annotation>
°C

>  <glass transition temperature>
135.00

$$$$
>  <Molecule>
*c1ccc(C2C3C(=O)N(c4ccc(N5C(=O)C6ON(C)C(*)C6C5=O)cc4)C(=O)C3ON2C)cc1 (repeat unit)

>  <Unit Annotation>
°C

>  <glass transition temperature>
67.00

$$$$
>  <Molecule>
*Oc1ccc(C2(c3ccc(OC(*)=S)cc3)CCCC2)cc1 (repeat unit)

>  <Unit Annotation>
°C

>  <glass transition temperature>
79.00

$$$$
>  <Molecule>
*c1cccc(S(=O)(=O)NCCCCCCNS(*)(=O)=O)c1 (repeat unit)

>  <Unit Annotation>
°C

>  <glass transition temperature>
67.00

$$$$
>  <Molecule>
*CCN(*)C(=O)c1cc(F)cc(F)c1 (repeat unit)

>  <Unit Annotation>
°C

>  <glass transition temperature>
106.00

$$$$
>  <Molecule>
*CCCCCCCCCCCCCCCCOC(=O)Nc1ccc(Cc2ccc(NC(=O)O*)cc2)cc1 (repeat unit)

>  <Unit Annotation>
°C

>  <glass transition temperature>
40.00

$$$$
>  <Molecule>
*Oc1ccc(C(C)(c2ccccc2)c2ccc(OC(=O)c3ccccc3-c3ccccc3C(*)=O)cc2)cc1 (repeat unit)

>  <Unit Annotation>
°C

>  <glass transition temperature>
172.00

$$$$
>  <Molecule>
*CC(*)O (repeat unit)

>  <Unit Annotation>
°C

>  <glass transition temperature>
79.67

$$$$
>  <Molecule>
*CC(CCCCCCCCCCCCCCCC)C1C(=O)N(CCCCCCCCCCCC)C(=O)C1* (repeat unit)

>  <Unit Annotation>
°C

>  <glass transition temperature>
30.00

$$$$

1: *Oc1ccc(C(=O)NNC(=O)c2ccc(C(=O)NNC(=O)c3ccc(OC(=O)c4cccc(C(*)=O)c4)cc3)cc2Oc2ccccc2)cc1 (repeat unit)
2: *c1ccc(NC2CC(=O)N(c3ccc(Cc4ccc(N5C(=O)CC(Nc6ccc(-c7nc(-c8ccc(/N=N/c9ccc([N+](=O)[O-])cc9)cc8)[nH]c7*)cc6)C5=O)cc4)cc3)C2=O)cc1 (repeat unit)
Lab note: record which item had the higher glass transition temperature, 1 or 2 . State your choice using its label.
2

###

Metric: glass transition temperature (°C)

>  <Compound>
*CC(*)c1cc(C(=O)OC)ccc1-c1ccc(OCCCCCCCC)cc1 (repeat unit)

>  <Unit Annotation>
°C

>  <glass transition temperature>
126.00

$$$$
>  <Compound>
*C1C2CC(CCCCc3ccccc3)C(C2)C1* (repeat unit)

>  <Unit Annotation>
°C

>  <glass transition temperature>
148.00

$$$$
>  <Compound>
*c1ccc(-c2ccc(-c3nc4ccc(-c5ccc6nc(*)c(-c7ccccc7)c(-c7ccccc7)c6c5)cc4c(-c4ccccc4)c3-c3ccccc3)cc2)cc1 (repeat unit)

>  <Unit Annotation>
°C

>  <glass transition temperature>
420.00

$$$$
>  <Compound>
*Cc1ccc(C(C)(C)c2ccc(Cn3c(=O)c4cc5c(=O)n(*)c(=O)c5cc4c3=O)o2)o1 (repeat unit)

>  <Unit Annotation>
°C

>  <glass transition temperature>
138.00

$$$$
>  <Compound>
*CC(=O)C(*)C (repeat unit)

>  <Unit Annotation>
°C

>  <glass transition temperature>
23.00

$$$$
>  <Compound>
*CC(*)c1cccc(F)c1 (repeat unit)

>  <Unit Annotation>
°C

>  <glass transition temperature>
86.00

$$$$

1: *CC(F)(F)C(F)(F)C(F)(F)C(F)(F)COC(=O)NCCCCCCNC(=O)O* (repeat unit)
2: *CCCCCCCNC(=O)c1ccc(C(=O)N*)cc1 (repeat unit)
3: *CCCCCCCCCCCOC(=O)c1cc(OCCCCCCCCOc2ccc(/N=N/c3ccc(OC)cc3)cc2)cc(C(=O)OCCCCCCCCCCCOc2ccc(-c3ccc(O*)cc3)cc2)c1 (repeat unit)
4: */C=C/C1CC(*)C2C(=O)N(CCCCC)C(=O)C12 (repeat unit)
5: *Oc1ccc(S(=O)(=O)c2ccc(Oc3ccc(S(=O)(=O)c4ccc(-c5ccc(S(=O)(=O)c6ccc(*)cc6)cc5)cc4)cc3)cc2)cc1 (repeat unit)
I would appreciate it if you could sort these 5 compounds by glass transition temperature, starting from the smallest number. List the labels according to the requested ordering.
1, 3, 4, 2, 5

Taken from the PolyMetriX glass transition set.
